pIC50: −log10 of the molar value.
For reference, the following pIC50 results for Human Factor XIIa (Homo sapiens) were taken from various sources.

Consider the worked cases shown below.
molecule: CC(C)(C)OC(=O)N1CCC(Cn2nc(Cl)cc2C(=O)NCc2ccc3c(N)nccc3c2)CC1
system.tested: Human Factor XIIa (Homo sapiens)
obs.value: 4.40 to 5.00

molecule: CN(CCOCc1sc(C(=O)NCc2ccc3c(N)nccc3c2)cc1Cl)Cc1ccccc1
system.tested: Human Factor XIIa (Homo sapiens)
obs.value: 4.40 to 5.00

molecule: Nc1nn(C(=O)[C@H]2CCNc3ccccc32)c2c1C[C@H](O)CC2 (single isomer, unassigned)
system.tested: Human Factor XIIa (Homo sapiens)
obs.value: < 4.10

molecule: Nc1c2c(nn1C(=O)[C@H]1CCNc3ccc(F)cc31)CNCC2 (single isomer, unassigned)
system.tested: Human Factor XIIa (Homo sapiens)
obs.value: 7.15

molecule: CCN1CCc2c(nn(C(=O)C3CCNc4ccccc43)c2N)C1 (centres unmarked)
system.tested: Human Factor XIIa (Homo sapiens)
obs.value: 6.82

molecule: Nc1nccc2cc(CNC(=O)c3cnc(OCCCN4CCCCC4)c(Cl)c3)ccc12
system.tested: Human Factor XIIa (Homo sapiens)
obs.value: 5.00 to 5.52

Parameters: items (list). Returns: pIC50 for each item.
1. N#Cc1ccccc1Oc1ncc(C(=O)NCc2ccc3c(N)nccc3c2)cc1Cl
2. CCOc1ccc(C[C@@H](NC(=O)c2ccccc2)C(=O)N[C@@H](Cc2cccnc2)C(=O)NCc2ccc(CN)c(C)c2)cc1
3. Nc1nccc2cc(CNC(=O)c3cc(Cl)cnc3NCC3CCN(C4CC4)CC3)ccc12
4. Nc1nccc2cc(CNC(=O)c3cc(Cl)c(CNCCCOc4ccccc4)s3)ccc12
5. Cc1cc(F)cc2c1NCC[C@H]2C(=O)n1nc2c(c1N)COCC2 (single isomer, unassigned)
6. CS(=O)(=O)N1CCc2c(N)nn(C(=O)C3CCNc4ccc(F)cc43)c2C1 (centres unmarked)
7. Nc1c2c(nn1C(=O)[C@@H]1CCNc3ccc(F)cc31)C[C@H](O)CC2 (single isomer, unassigned)

A)
1: 5.00 to 5.52; 2: < 5.00; 3: 6.00 to 6.52; 4: 4.40 to 5.00; 5: 4.90; 6: 4.52; 7: < 4.00

Each molecule below has a recorded value; state its pIC50.
1. CN1CCCN(c2ncc(C(=O)NCc3ccc4c(N)nccc4c3)cc2Cl)CC1
2. COc1ccc(C(=O)n2nc3c(c2N)CCCC3)c2cc[nH]c12
3. Cn1nccc1CN1CCC(CNc2ncc(Cl)cc2C(=O)NCc2ccc3c(N)nccc3c2)CC1
4. CS(=O)(=O)N1CCc2c(nn(C(=O)C3CCNc4ccc(-c5ccccc5)cc43)c2N)C1 (centres unmarked)
5. CS(=O)(=O)N1CCC(CNc2ncc(Cl)cc2C(=O)NCc2ccc3c(N)nccc3c2)CC1
6. CCc1cc(C)c2c(c1)C(C(=O)n1nc3c(c1N)CCN(S(C)(=O)=O)C3)CCN2 (single isomer, unassigned)
7. N#Cc1cccc(CNc2ncc(C(=O)NCc3ccc4c(N)nccc4c3)cc2Cl)c1
8. CN1CCCN(Cc2sc(C(=O)NCc3ccc4c(N)nccc4c3)cc2Cl)CC1

A)
["4.40 to 5.00", 6.60, "5.52 to 6.00", 4.96, "5.00 to 5.52", 5.30, "4.40 to 5.00", "5.00 to 5.52"]

Field: pIC50. Fill in for each record below.
1. CN(C)c1ccc(COCc2sc(C(=O)NCc3ccc4c(N)nccc4c3)cc2Cl)cc1
2. Cn1ccc2c(C(=O)n3nc(N)c4c3CCCC4)cccc21 (single isomer, unassigned)
3. Nc1nccc2cc(CNC(=O)c3cncc(Cl)c3)ccc12
4. C[C@@H]1N=C(N2CCN(C(=O)[C@@H](CCCCN(C)C)N(C)C3CCC4(CC3)CCN(Cc3ccccc3)C4)[C@H](C(=O)NCc3cccs3)C2)O[C@H]1c1ccccc1 (some centres unmarked)
5. COC(=O)N1CCc2c(c(N)nn2C(=O)C2CCNc3ccccc32)C1 (centres unmarked)
6. N=C(N)c1cc2ccc(OC(=O)c3ccccc3)cc2s1
7. CCN1CCc2c(nn(C(=O)[C@@H]3CCNc4c(C)cccc43)c2N)C1 (single isomer, unassigned)
8. Nc1nccc2cc(CNC(=O)c3cc(Br)cs3)ccc12

A)
1: 4.40 to 5.00; 2: < 4.30; 3: 4.40 to 5.00; 4: 8.74; 5: 4.10; 6: 6.05; 7: 5.10; 8: 5.00 to 5.52

For each of the molecules below, state pIC50.
1. CCN1CCC(CNc2ncc(Cl)cc2C(=O)NCc2ccc3c(N)nccc3c2)CC1
2. Nc1nccc2cc(CNC(=O)c3cc(Cl)c(CN4CCc5ncccc5C4)s3)ccc12
3. COc1ccc(CNc2ncc(Cl)cc2C(=O)NCc2ccc3c(N)nccc3c2)cc1

A)
["> 6.52", "5.00 to 5.52", "4.40 to 5.00"]

* * *

Assay read-out pIC50 on Human Factor XIIa (Homo sapiens); records merged from the literature.
Give bare numbers, as −log10 of the molar value.

Worked examples, 3 compounds total:
compound: Cc1cccc2c1NCC[C@@H]2C(=O)n1nc2c(c1N)CCN(S(=O)(=O)N(C)C)C2 (single isomer, unassigned)
system.tested: Human Factor XIIa (Homo sapiens)
obs.value: 7.40
//
compound: CC(C)N[C@H](CCCCN1CCCCC1)C(=O)N1CCN(C2=N[C@@H](C)[C@H](c3cccc(Br)c3)O2)C[C@H]1C(=O)NCc1cccc(Cl)c1
system.tested: Human Factor XIIa (Homo sapiens)
obs.value: 8.09
//
compound: CCC(=O)N1CCc2c(nn(C(=O)C3CCNc4ccccc43)c2N)C1 (stereo not shown)
system.tested: Human Factor XIIa (Homo sapiens)
obs.value: 6.35

Now consider a different compound.
Q) Item `Nc1c2c(nn1C(=O)c1cccc3c1ccn3Cc1ccccc1)CCCC2` has what recorded pIC50?
A) 5.30

* * *

Literature roundup of Human Factor XIIa (Homo sapiens, UniProt P00748) data, read-out IC50.

compound: Nc1nccc2cc(CNC(=O)c3cc(Cl)c(CNCc4cccc(N5CCCC5=O)c4)s3)ccc12
IC50: 10 to 40 µM

compound: Cc1ccc2cc(Cn3ncc(C(=O)NCc4c(C)cc(CN)cc4C)c3C)ccc2n1
IC50: > 40 µM

compound: Nc1c2c(nn1C(=O)[C@@H]1CCNc3ccc(F)cc31)CC[C@@H](O)C2 (single isomer, unassigned)
IC50: 45 µM

compound: Nc1c2c(nn1C(=O)[C@H]1CCNc3ccc(F)cc31)CC[C@H](N)C2 (stereo in doubt)
IC50: 0.08 µM

compound: Nc1nn(C(=O)C2CCNc3ccccc32)c2ccccc12 (centres unmarked)
IC50: > 100 µM

compound: N#Cc1cccc(Oc2ncc(C(=O)NCc3ccc4c(N)nccc4c3)cc2Cl)c1
IC50: 10 to 40 µM

Batch: IC50 for all items listed.
1. Nc1nccc2cc(CNC(=O)c3cc(Cl)cnc3OCCN3CCCCC3)ccc12
2. Nc1nccc2cc(CNC(=O)c3cc(Cl)c(COCCN4CCCC4)s3)ccc12

A)
10 to 40 µM
3 to 10 µM

* * *

Kindly find below IC50 information for Human Factor XIIa (Homo sapiens, UniProt P00748) taken from the literature.

These recorded examples may help you get a feel for the data.
compound: Cc1cccc2c1NCCC2C(=O)n1nc2c(c1N)CCN(S(C)(=O)=O)C2C (single isomer, unassigned)
outcome.measure: IC50
obs.value: > 80 µM

compound: CCOc1ccc(C[C@@H](NC(=O)c2ccc(C)cc2)C(=O)N[C@@H](Cc2cccnc2)C(=O)NCc2ccc(CN)cc2)cc1
outcome.measure: IC50
obs.value: > 10 µM

compound: Cc1sc2ccccc2c1C(=O)n1nc(N)c2c1CCCC2 (single isomer, unassigned)
outcome.measure: IC50
obs.value: > 100 µM

Continue with the next compound.
Q) Dear colleague, I am looking for the recorded IC50 of the following compound: CN1CCCC(COc2ccc(NCc3ccc4c(N)nccc4c3)nc2)C1 (stereo not shown)
A) 1 to 3 µM

* * *

pIC50: −log10 of the molar value.
Field: pIC50. System: Human Factor XIIa (Homo sapiens). Provenance: assorted publications.

Record excerpt, results attached:
compound: COCc1nn(Cc2ccc(Cn3ccccc3=O)cc2)cc1C(=O)NCc1ccccc1-n1cnnn1
system.tested: Human Factor XIIa (Homo sapiens)
obs.value: < 4.40
//
compound: Cc1cc2c(C(=O)n3nc4c(c3N)CC(F)(F)CC4)cccc2[nH]1
system.tested: Human Factor XIIa (Homo sapiens)
obs.value: 7.70
//
compound: CS(=O)(=O)Nc1cccc(Nc2ncc(Cl)cc2C(=O)NCc2ccc3c(N)nccc3c2)c1
system.tested: Human Factor XIIa (Homo sapiens)
obs.value: 4.40 to 5.00
//
compound: Nc1c2c(nn1C(=O)[C@H]1CCNc3ccc(Cl)cc31)CC[C@H](O)C2 (single isomer, unassigned)
system.tested: Human Factor XIIa (Homo sapiens)
obs.value: 5.89
//
compound: CN1CCC(Oc2ccnc(NCc3ccc4c(N)nccc4c3)c2)CC1
system.tested: Human Factor XIIa (Homo sapiens)
obs.value: > 6.00

Please report pIC50 for every entry that follows.
1. Nc1nccc2cc(CNC(=O)c3cc(Cl)cnc3NCC3CCN(C4CCCC4)CC3)ccc12
2. CS(=O)(=O)c1cccc(CNCc2sc(C(=O)NCc3ccc4c(N)nccc4c3)cc2Cl)c1
3. COc1ccc(Nc2ncc(Cl)cc2C(=O)NCc2ccc3c(N)nccc3c2)cc1

A)
["6.00 to 6.52", "5.00 to 5.52", "4.40 to 5.00"]
